For each of the compounds below, state its Max Resp.
tested on: P. falciparum 3D7 gametocytes; experiment: alamarBlue gametocyte viability assay, strain 3D7; assay type: cell-based, Plasmodium falciparum; settings: Malaria Box; DMSO set at 0%, 100 nM epoxomicin set at -100%
Express your answer in %, writing the number without its unit.

Ask | Lab note: need Max Resp with P. falciparum 3D7 gametocytes for entry Cc1c(C)n(Cc2ccc(F)cc2)c2ccc(C(=O)NCc3ccco3)cc12 [MMV008149] , please look it up.
Reply | 17

Ask | // fetch P. falciparum 3D7 gametocytes Max Resp for COc1cc(-c2nc(-c3ccc(Sc4ccccc4)cc3)c(-c3ccccc3)[nH]2)cc(OC)c1O [MMV007273]
Reply | -62

Ask | Can you look up Max Resp on P. falciparum 3D7 gametocytes for Cc1ccc(C2CC(C(F)(F)F)n3nc(C(=O)N4CCN(C(c5ccccc5)c5ccccc5)CC4)cc3N2)cc1 (stereo not drawn) [MMV000699] ?
Reply | -70

Ask | Which measured Max Resp belongs to O=C(NCc1ccco1)C1CCN(S(=O)(=O)c2ccc(Br)cc2)CC1 [MMV007430] , tested on P. falciparum 3D7 gametocytes?
Reply | 29

Ask | Give Max Resp (P. falciparum 3D7 gametocytes) of the following compound: c1ccc(Cn2c(N=Nc3c(Nc4ccccc4)ccc4ccccc34)nc3ccccc32)cc1 [MMV666023]
Reply | -89

Ask | Give Max Resp (P. falciparum 3D7 gametocytes) of the following compound: O=C(Nc1ccc(N2CCCCC2)c(Cl)c1)c1ccc(Br)o1 [MMV019700]
Reply | 17

Ask | Hi! What's the reported Max Resp for Cc1cc(NCCN2CCCCC2)c2ccc3ccccc3c2n1 [MMV006203] on P. falciparum 3D7 gametocytes?
Reply | -94

Ask | Observed Max Resp on P. falciparum 3D7 gametocytes for C=C(C)CCC(C)N1CCC(N2CCC(C(=O)NCCc3ccccc3)CC2)CC1 (stereo not drawn) [MMV666110] , please.
Reply | -73

Ask | GET /values?readout=Max Resp&system=P. falciparum 3D7 gametocytes&item= COc1cccc(NC(=O)[C@H](C(C)C)n2c(=O)[nH]c3ccccc3c2=O)c1 [MMV665878]
Reply | -82

----------
test system: P. falciparum 3D7 gametocytes; experiment: alamarBlue gametocyte viability assay, strain 3D7; type: cell-based, Plasmodium falciparum; details: Malaria Box; DMSO set at 0%, 100 nM epoxomicin set at -100%
VALUE KIND: Max Resp (%)
Numbers only here, please. The scale is %.

Ask | # query: Max Resp of entry CC(C)CNC(=O)c1c(N)n(CCc2ccccc2F)c2nc3ccccc3nc12 [MMV396744]
Reply | -70

Ask | I would be grateful if you could share the reported Max Resp for COc1ccc(C)c2sc(N(Cc3cccnc3)C(=O)c3ccc(C#N)cc3)nc12 [MMV001241] .
Reply | -48

Ask | Item CCN(CC)CCNc1ccnc2cc(Cl)ccc12 [MMV006087] has what recorded Max Resp?
Reply | -66

----------
test system: P. falciparum 3D7 gametocytes; test: alamarBlue gametocyte viability assay, strain 3D7; type: cell-based, Plasmodium falciparum; details: Malaria Box; DMSO set at 0%, 100 nM epoxomicin set at -100%
VALUE KIND: Max Resp

Ask | Give recorded Max Resp with P. falciparum 3D7 gametocytes for the following compound: `O=C(Nc1ccc(Cl)cc1)N1CCN(c2ccc3nncn3n2)CC1`
Reply | -1%

Ask | What value of Max Resp on P. falciparum 3D7 gametocytes does `COc1ccc(C(=O)Nc2ccc3nc(N4CCCCC4)cc(C)c3c2)cc1OC` have?
Reply | -32%

Ask | What is its Max Resp for P. falciparum 3D7 gametocytes? Entry: `COc1ccc(C(=O)Nc2ccc(Cl)cc2C(=O)Nc2ccncc2)cc1`
Reply | -28%

Ask | Field: Max Resp (P. falciparum 3D7 gametocytes). Entry: `FC(F)(F)c1cccc(CNC2CCN(CCc3ccccc3)CC2)c1`
Reply | -89%

Ask | Find the measured Max Resp: item COc1ccc(C2=C(c3ccc(OC)cc3)C3(c4ccccc4)C(=O)C2(c2ccccc2)C2C(=O)N(c4ccc(C)cc4)C(=O)C23)cc1 (centres unmarked) , target or system P. falciparum 3D7 gametocytes.
Reply | 1%

Ask | Lab note: need Max Resp for COc1ccc(C2C(C(=O)Nc3cccc(OC)c3)c3ccccc3C(=O)N2C2CCCCC2)cc1 (centres unmarked) on P. falciparum 3D7 gametocytes, anyone have it?
Reply | -89%

Ask | Which Max Resp is reported with P. falciparum 3D7 gametocytes for this entry: `COc1cc(-c2nc(-c3ccccc3)c(-c3ccccc3)[nH]2)cc(OC)c1O` ?
Reply | -55%

Ask | Value wanted: Max Resp (P. falciparum 3D7 gametocytes) of entry `COc1cccc(-c2nn(C)c3sc(C(=O)NCCN4CCN(c5ccccc5F)CC4)cc23)c1`
Reply | -42%

Ask | Give Max Resp (P. falciparum 3D7 gametocytes) of the following compound: `O=C(Nc1cccc(C2=NCCN2)c1)Nc1cccc(C2=NCCN2)c1`
Reply | -78%

Ask | Param readout= Max Resp; system= P. falciparum 3D7 gametocytes; entry= `COc1cccc(Nc2nc(NCCO)c3ccccc3n2)c1.Cl` ; returns value.
Reply | -68%

Ask | What measured Max Resp is associated with `Cc1ccc(C(=O)c2oc3ccc4c(C)cc(=O)oc4c3c2C)cc1` on P. falciparum 3D7 gametocytes?
Reply | 0%

Ask | Short answer please: Max Resp, P. falciparum 3D7 gametocytes, entry `FC(F)(F)c1cccc(Nc2nc(-c3ccccc3)nc3ncccc23)c1`
Reply | -7%

Ask | Item: `CCN(CC)CCCNc1ccnc2cc3ccccc3cc12` Test system: P. falciparum 3D7 gametocytes Read-out: Max Resp Value: ?
Reply | -50%

Ask | State its Max Resp on P. falciparum 3D7 gametocytes: `OCCNc1nc(Nc2ccc(Cl)c(Cl)c2)nc2ccccc12`
Reply | -63%

Ask | Param readout= Max Resp; system= P. falciparum 3D7 gametocytes; entry= `COc1cccc(Nc2nc(N)c3ccccc3n2)c1.Cl` ; returns value.
Reply | -66%

Ask | Observed Max Resp on P. falciparum 3D7 gametocytes for `O=C(NC1CCN(Cc2ccccc2)CC1)c1cc2nc(-c3ccc(Cl)s3)cc(C(F)(F)F)n2n1` , please.
Reply | -24%

Ask | Under P. falciparum 3D7 gametocytes: Max Resp value of CCOc1ccccc1CNC(=O)C1c2ccccc2C(=O)N(CC(C)C)C1c1cccs1 (centres unmarked) ?
Reply | -49%

----------
tested on: P. falciparum 3D7 gametocytes; experiment: alamarBlue gametocyte viability assay, strain 3D7; format: cell-based, Plasmodium falciparum; conditions: Malaria Box; DMSO set at 0%, 100 nM epoxomicin set at -100%
Under this convention, rule met denotes Max Resp strictly below -70% and rule not met denotes Max Resp at or above -70%.

Ask | State whether -70% exceeds Max Resp recorded for `Oc1ccc(C(=C(Cl)Cl)c2ccc(O)cc2)cc1` .
Reply | rule not met

Ask | Report whether reported Max Resp is lower than -70% (strictly) for `Cc1ccc(Nc2nc(N)c3ccccc3n2)cc1Cl`
Reply | rule met

Ask | Determine if CCCC(c1nnnn1C1CCCCC1)N1CCN(C(=O)c2ccco2)CC1.Cl (stereo not drawn) shows Max Resp strictly lower than -70%.
Reply | rule not met

Ask | Here's an entry: Cc1ccnc(NC(c2cccc(OCc3ccccc3)c2)c2ccc3cccnc3c2O)c1 (stereo not drawn) . Is its Max Resp below -70%?
Reply | rule met

Ask | Quick check: does `COc1ccc(-c2nonc2NC(=O)c2cccc(C)c2)cc1OC` have Max Resp under -70%?
Reply | rule not met

Ask | Please let me know if `CCN(CC)CCNc1ncnc2c1[nH]c1ccc(Cl)cc12` shows Max Resp below -70%.
Reply | rule met

Ask | Please let me know if CC(C)(C)CC(C)(C)NCC(O)COc1ccc2c(c1)CCC2.Cl (stereo not drawn) shows Max Resp below -70%.
Reply | rule met

Ask | Could you please tell me whether Max Resp recorded for `Nc1nc(Nc2cccc(F)c2)nc2ccccc12` is less than -70%?
Reply | rule not met

Ask | Report whether reported Max Resp is lower than -70% (strictly) for `O=c1nc(C=Cc2ccc(Cl)cc2)oc2ccccc12`
Reply | rule not met

----------
Consider the following molecules; for each one, report its Max Resp.
tested on: P. falciparum 3D7 gametocytes; assay: alamarBlue gametocyte viability assay, strain 3D7; type: cell-based, Plasmodium falciparum; conditions: Malaria Box; DMSO set at 0%, 100 nM epoxomicin set at -100%
Quick reminder: number only, in %, skip the unit.

Ask | For the molecule CCOc1ccc(CCNC(=O)c2cccs2)cc1OCC [MMV007978] , what Max Resp is on record?
Reply | -13

Ask | Consider the molecule CCCCCCOC(=O)C1=C(C)NC(=O)NC1c1ccccc1F (centres unmarked) [MMV007686] and give its measured Max Resp.
Reply | -2

Ask | Fill in the blank: the reported Max Resp of COc1ccc(Br)cc1C1Nc2ccc3ccccc3c2C2=C1C(=O)CC(c1ccccc1)C2 (centres unmarked) [MMV020885] is ____.
Reply | -29

Ask | So what does the record say about Max Resp for CC1CN(C(=O)c2sc3ccccc3c2Cl)CC(C)O1 (centres unmarked) [MMV020492] ?
Reply | -36

Ask | # query: Max Resp of entry COc1ccc(-c2c(C)nn3c(N)c(C#N)cnc23)cc1OC [MMV396797]
Reply | -90

Ask | Give its Max Resp value. Item: CCCCc1ccc(NS(=O)(=O)c2cc3c4c(c2)CCN4C(=O)CC3)cc1 [MMV001255]
Reply | 2

Ask | Can you look up the measured Max Resp of CCOC(=O)C1CCN(C(=O)CN2C(=O)c3ccccc3C2c2c[nH]c3ccccc23)CC1 (centres unmarked) [MMV011576] for me?
Reply | -98

Ask | # get_value(readout='Max Resp', item= CN1CCN(c2ncnc3c2[nH]c2ccc(Cl)cc23)CC1 [MMV396704] )
Reply | -57
